Data origin: a melting point compilation (Tetko et al.; mined from patent text by program, amines drawn as free bases though some values may be those of a salt)

Each entry below carries its reported melting point.

{"molecule": "Nc1nc(N)c2ncn(COCCO)c2n1", "melting point": "183 to 184 °C"}
{"molecule": "O=C(O)Cc1cc(C(=O)C=Cc2ccc(Cl)cc2Cl)ccc1O", "melting point": "232 °C"}
{"molecule": "O=C(CCC(F)(F)F)Nc1ccccc1", "melting point": "187 °C"}
{"molecule": "O=C(O)c1cc2cc([N+](=O)[O-])ccc2[nH]c1=O", "melting point": "> 310 °C"}
{"molecule": "CC1=C(C(=O)OC(C)C)C(c2cccc([N+](=O)[O-])c2)n2c(cc(=O)n2Cc2ccccc2)N1 (stereo unspecified)", "melting point": "184 to 185 °C"}
{"molecule": "COc1ccc(Cl)cc1C(=O)NCCc1ccc(Br)c(S(=O)(=O)N=CN(C)C)c1", "melting point": "150 to 152 °C"}
{"molecule": "COC(=O)c1cc(O)cc(OCCCOc2ccc(OCc3ccccc3)cc2)c1", "melting point": "120 to 122 °C"}
{"molecule": "Nc1ncc(CCCc2cccc3ccccc23)c(N)n1", "melting point": "179 to 181 °C"}
{"molecule": "CN(C(=O)c1cc(=O)n(C)c2ccc(C(O)(c3ccc(Cl)cc3)c3cncn3C)cc12)c1cccc(Cl)c1 (stereo unspecified)", "melting point": "218 °C"}
{"molecule": "O=[N+]([O-])c1ccc(Oc2ccc3ccc(Oc4ccc([N+](=O)[O-])c(O)c4)cc3c2)cc1O", "melting point": "218 to 220 °C"}
{"molecule": "FC(F)Oc1ccc(-c2nnc(Nc3ccc(Cl)c(Cl)c3)s2)cc1", "melting point": "265 to 266 °C"}
{"molecule": "O=C(O)CCC(=O)c1ccc(F)c(Br)c1", "melting point": "108 to 110 °C"}
{"molecule": "Cc1cn2cccc(CCl)c2n1", "melting point": "110 to 112 °C"}
{"molecule": "CCOC(=O)COc1cc2onc(-c3ccccc3F)c2cc1Br", "melting point": "130 to 132 °C"}
{"molecule": "COc1cc(Nc2c(C#N)cnc3cc(-c4ccc(CNCCS(C)(=O)=O)cc4)ccc23)c(Cl)cc1Cl", "melting point": "245 to 246 °C"}
{"molecule": "CC1Nc2ccccc2-c2c([N+](=O)[O-])cnn21 (stereo unspecified)", "melting point": "173 to 175 °C"}
{"molecule": "Cc1cc(C)cc(Nc2nnc(Cc3ccncc3)c3ccccc23)c1", "melting point": "174 to 175 °C"}
{"molecule": "NC/C(=C\\F)COc1ccc(Cl)cc1Cl", "melting point": "104 °C"}
{"molecule": "Cc1cc(C(C)C)c(S(C)(=O)=O)cc1C(=O)N=C(N)N", "melting point": "220 to 223 °C"}
{"molecule": "Oc1ccc2c(c1)CCN(c1ccc(Cl)cc1)C2", "melting point": "122 to 123 °C"}
{"molecule": "CCNC(=O)c1cccc2c1c(=O)n(Cc1cccnc1)n2C(=O)OCC", "melting point": "197 to 198 °C"}

---

// reported melting point for each item listed
observed property: melting point

{"compound": "Nc1nc(Cl)cc(NCC2CC2(Cl)Cl)n1 (stereo unspecified)", "result": "78 to 79 °C"}
{"compound": "CCOC(=O)C(=O)Nc1coc2ccccc2c1=O", "result": "146 to 148 °C"}
{"compound": "Nc1nc(N)nc(-c2ccc(-c3ccc([N+](=O)[O-])cc3)cc2)n1", "result": "> 250 °C"}
{"compound": "O=C(O)CCSc1cccs1", "result": "110 to 112 °C"}
{"compound": "O=C(O)COc1ccc(CCNS(=O)(=O)c2ccccc2)cc1", "result": "157 to 158 °C"}
{"compound": "CC=C(NC(=O)CCC1CCCC1)C(=O)O", "result": "180 to 182 °C"}
{"compound": "COCOc1cc(COc2nn(Cc3ccccc3)cc2C=O)ccc1OCc1nc(-c2ccco2)oc1C", "result": "141 to 142 °C"}
{"compound": "O=C(c1ccc(Cl)cc1)c1c(N2C(=O)c3ccccc3C2=O)sc(Br)c1CN(C1CCCCC1)C1CCCCC1", "result": "173 to 175 °C"}
{"compound": "O=C1OCC(CC(F)(F)F)N1c1nc(-c2ccc(Br)cc2)cs1 (stereo unspecified)", "result": "163 to 165 °C"}
{"compound": "CCOC(=N)c1ccc(Cl)c(Cl)c1", "result": "62 to 64 °C"}
{"compound": "O=C(NO)c1ccc(C(=O)NOCC2CCc3ccccc3C2)cc1 (stereo unspecified)", "result": "184 to 186 °C"}
